Attribution: patent US8614327B2

# targetOfAssay: ΔF508-CFTR (Homo sapiens, UniProt P13569, DEL508-508)
# Construct: expressed in transfected cells
# Sequence (P13569 with tags, fused parts or gaps DEL508-508): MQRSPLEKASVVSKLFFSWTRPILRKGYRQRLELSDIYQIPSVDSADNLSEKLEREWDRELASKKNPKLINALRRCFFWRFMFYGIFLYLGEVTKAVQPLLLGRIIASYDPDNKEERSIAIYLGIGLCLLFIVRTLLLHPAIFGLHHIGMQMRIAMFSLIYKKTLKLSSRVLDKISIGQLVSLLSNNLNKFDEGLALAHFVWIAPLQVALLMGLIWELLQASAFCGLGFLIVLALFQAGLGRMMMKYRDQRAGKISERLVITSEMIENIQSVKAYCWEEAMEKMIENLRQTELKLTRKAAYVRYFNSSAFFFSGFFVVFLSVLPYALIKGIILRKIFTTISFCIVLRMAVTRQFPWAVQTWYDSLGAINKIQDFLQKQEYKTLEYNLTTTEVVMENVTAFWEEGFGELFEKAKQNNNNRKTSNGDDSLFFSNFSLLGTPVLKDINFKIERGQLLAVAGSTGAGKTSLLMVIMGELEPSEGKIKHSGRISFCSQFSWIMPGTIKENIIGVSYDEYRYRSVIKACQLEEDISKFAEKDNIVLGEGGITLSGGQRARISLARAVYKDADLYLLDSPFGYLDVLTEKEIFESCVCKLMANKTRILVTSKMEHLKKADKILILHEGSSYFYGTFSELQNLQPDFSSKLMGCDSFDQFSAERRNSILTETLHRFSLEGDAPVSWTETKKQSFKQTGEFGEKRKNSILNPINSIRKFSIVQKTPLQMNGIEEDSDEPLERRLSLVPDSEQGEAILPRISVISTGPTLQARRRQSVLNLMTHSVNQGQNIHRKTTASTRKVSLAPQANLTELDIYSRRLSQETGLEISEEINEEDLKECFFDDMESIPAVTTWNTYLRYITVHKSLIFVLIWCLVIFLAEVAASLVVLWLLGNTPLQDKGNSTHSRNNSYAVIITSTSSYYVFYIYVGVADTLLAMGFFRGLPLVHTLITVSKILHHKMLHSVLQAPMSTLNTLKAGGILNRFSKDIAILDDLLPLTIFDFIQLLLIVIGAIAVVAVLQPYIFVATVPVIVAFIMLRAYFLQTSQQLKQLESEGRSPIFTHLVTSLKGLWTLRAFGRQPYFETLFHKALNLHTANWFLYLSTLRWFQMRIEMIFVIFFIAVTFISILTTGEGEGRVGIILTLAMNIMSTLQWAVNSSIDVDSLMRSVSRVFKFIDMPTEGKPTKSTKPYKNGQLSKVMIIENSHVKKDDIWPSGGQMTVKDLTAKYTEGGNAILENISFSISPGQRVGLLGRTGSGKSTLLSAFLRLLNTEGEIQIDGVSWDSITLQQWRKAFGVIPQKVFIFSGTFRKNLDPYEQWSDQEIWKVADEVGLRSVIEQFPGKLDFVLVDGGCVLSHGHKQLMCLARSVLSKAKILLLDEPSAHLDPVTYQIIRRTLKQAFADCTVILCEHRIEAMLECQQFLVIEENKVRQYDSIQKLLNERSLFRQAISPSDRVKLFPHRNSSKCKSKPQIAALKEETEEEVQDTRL
# experimentalDetails: Membrane potential optical (FRET/VIPR) assay, identification of potentiator compounds
# Format: cell-based
# details: Table 3; relative efficacy; assay not given
# Source text: […]
measureName: % Activity

Study these solved cases before continuing.
{"compound": "CN(C)CCS(=O)(=O)Nc1cc(NC(=O)c2c[nH]c3ccccc3c2=O)cc(C(F)(F)F)c1", "valueReported": "++ (between 25% to 100%)"}
{"compound": "Cc1c(NC(=O)c2c[nH]c3ccccc3c2=O)cccc1C(F)(F)F", "valueReported": "++ (between 25% to 100%)"}
{"compound": "Cc1ccccc1-c1nc2cc(NC(=O)c3c[nH]c4ccccc4c3=O)ccc2o1", "valueReported": "++ (between 25% to 100%)"}
{"compound": "NCc1ccccc1-c1ccc(NC(=O)c2c[nH]c3ccccc3c2=O)cc1", "valueReported": "++ (between 25% to 100%)"}
{"compound": "O=C(Nc1ccc2cc[nH]c2c1)c1cnc2ccc(Cl)cc2c1O", "valueReported": "++ (between 25% to 100%)"}
{"compound": "O=C(Nc1ccc2nccnc2c1)c1c[nH]c2ccccc2c1=O", "valueReported": "+ (<25%)"}

QUERY: Which value of % Activity has been reported for "O=C(Nc1cccc(S(=O)(=O)N2CCCCC2)c1)c1c[nH]c2ccccc2c1=O" in the records?
RESULT: + (<25%)

QUERY: Another compound to check: "N#Cc1c[nH]c2cc(NC(=O)c3c[nH]c4ccccc4c3=O)ccc12"
RESULT: ++ (between 25% to 100%)

QUERY: Cool, now "O=C(Nc1cc2[nH]ccc2cc1F)c1c[nH]c2cccc(O)c2c1=O"
RESULT: ++ (between 25% to 100%)

QUERY: Same read-out for "COCCOC(=O)NCC(C)(C)c1ccc(NC(=O)c2c[nH]c3ccccc3c2=O)cc1" ?
RESULT: ++ (between 25% to 100%)

QUERY: Moving on to "CC(C)(C)c1cc(Cl)c(O)cc1NC(=O)c1c[nH]c2ccccc2c1=O"
RESULT: ++ (between 25% to 100%)

QUERY: Next compound: "Cc1ccc2c(c1)c(=O)c(C(=O)Nc1ccccc1-c1ccccc1)cn2C"
RESULT: + (<25%)

QUERY: Moving on to the next compound: "O=C(Nc1cc2[nH]ccc2cc1F)c1c[nH]c2ccccc2c1=O"
RESULT: ++ (between 25% to 100%)

QUERY: Now give it for "CC1(C)CCNc2cc(NC(=O)c3c[nH]c4ccccc4c3=O)ccc21" too.
RESULT: ++ (between 25% to 100%)

QUERY: Ok, now "O=C(Nc1ccc(C(F)(F)F)cc1)c1c[nH]c2ccccc2c1=O"
RESULT: ++ (between 25% to 100%)

QUERY: Likewise for "CC(C)(C)c1ccc(NC(=O)c2c[nH]c3ccccc3c2=O)cc1S(N)(=O)=O" ?
RESULT: ++ (between 25% to 100%)

QUERY: What do you get for CCC(C)c1ccccc1NC(=O)c1c[nH]c2ccccc2c1=O (stereo not shown) ?
RESULT: ++ (between 25% to 100%)

QUERY: Try the compound "CC(C)(C)OC(=O)NCCc1c[nH]c2cc(NC(=O)c3c[nH]c4ccccc4c3=O)ccc12"
RESULT: ++ (between 25% to 100%)

QUERY: And "Cc1cc(NC(=O)c2c[nH]c3ccccc3c2=O)ccc1F" ?
RESULT: ++ (between 25% to 100%)

---

# targetOfAssay: ΔF508-CFTR (Homo sapiens, UniProt P13569, DEL508-508)
# Construct: expressed in transfected cells
# experimentalDetails: Membrane potential optical (FRET/VIPR) assay, identification of potentiator compounds
# Format: cell-based
# details: Table 3; relative efficacy; assay not given

{"compound": "CC(C)(C)c1cc2cc[nH]c2cc1NC(=O)c1c[nH]c2ccc(S(=O)(=O)N3CCCC3)cc2c1=O [Compound 274]", "% Activity": "++ (between 25% to 100%)"}
{"compound": "O=C(Nc1ccccc1-c1cc(Cl)cc(Cl)c1)c1c[nH]c2ccccc2c1=O [Compound 367]", "% Activity": "++ (between 25% to 100%)"}

---

EC50: recorded values
# targetOfAssay: ΔF508-CFTR (Homo sapiens, UniProt P13569, DEL508-508)
# experimentalDetails: Membrane potential optical (FRET/VIPR) assay, identification of potentiator compounds
# details: Table 3; assay not given

Use the examples below as a reference point.
{"compound": "CC(O)c1ccc(NC(=O)c2c[nH]c3ccccc3c2=O)cc1 (centres unmarked) [Compound 450]", "EC50": "10 to 25 µM"}
{"compound": "CC(C)c1ccccc1NC(=O)c1c[nH]c2ccccc2c1=O [Compound 36]", "EC50": "< 10 µM"}
{"compound": "CC(C)(C)OC(=O)N1CCc2c(cccc2NC(=O)c2c[nH]c3ccccc3c2=O)C1 [Compound 427]", "EC50": "< 10 µM"}

QUERY: Would you mind telling me what EC50 value was observed for O=C(Nc1ccccc1C(F)(F)F)c1c[nH]c2ccccc2c1=O [Compound 111] ?
RESULT: < 10 µM

QUERY: What do you have for COc1ccccc1-c1ccccc1NC(=O)c1c[nH]c2ccccc2c1=O [Compound 355] ?
RESULT: < 10 µM

QUERY: Further, for Cc1ccc2c(=O)c(C(=O)Nc3cc4[nH]ccc4cc3C(C)(C)C)c[nH]c2c1 [Compound 704] ?
RESULT: < 10 µM

QUERY: # repeat for Cc1cccc2[nH]cc(C(=O)Nc3cc(O)c(C4(C)CCCCC4)cc3F)c(=O)c12 [Compound 498]
RESULT: < 10 µM

QUERY: Here is the next compound: CC(C)c1c[nH]c2cc(NC(=O)c3c[nH]c4ccccc4c3=O)ccc12 [Compound 357]
RESULT: < 10 µM

QUERY: Try the compound O=C(Nc1cc2[nH]ccc2cc1Cl)c1c[nH]c2ccccc2c1=O [Compound 32]
RESULT: < 10 µM

QUERY: Please answer likewise for COc1ncccc1NC(=O)c1c[nH]c2ccccc2c1=O [Compound 15]
RESULT: 10 to 25 µM

---

Each entry below carries its recorded EC50.
# targetOfAssay: ΔF508-CFTR (Homo sapiens, UniProt P13569, DEL508-508)
# experimentalDetails: Membrane potential optical (FRET/VIPR) assay, identification of potentiator compounds
# details: Table 3; assay not given

# example entries with known answers
{"givenSmiles": "COc1cc2[nH]cc(C(=O)Nc3cc(O)c(C(C)(C)C)cc3C(C)(C)C)c(=O)c2cc1F", "targetOfAssay": "ΔF508-CFTR (Homo sapiens, UniProt P13569, DEL508-508)", "measureName": "EC50", "valueReported": "< 10 µM"}
{"givenSmiles": "O=C(Nc1ccccc1-c1ccc(C(F)(F)F)cc1)c1c[nH]c2ccccc2c1=O", "targetOfAssay": "ΔF508-CFTR (Homo sapiens, UniProt P13569, DEL508-508)", "measureName": "EC50", "valueReported": "< 10 µM"}
{"givenSmiles": "CC(C)(C)c1cc(F)c(NC(=O)c2c[nH]c3ccc(F)cc3c2=O)cc1O", "targetOfAssay": "ΔF508-CFTR (Homo sapiens, UniProt P13569, DEL508-508)", "measureName": "EC50", "valueReported": "< 10 µM"}

Continue with the compound presented below.
QUERY: What value of EC50 has been reported for the following compound? "O=C(Nc1cccc(Cl)c1)c1c[nH]c2ccccc2c1=O"
RESULT: < 10 µM

---

# targetOfAssay: ΔF508-CFTR (Homo sapiens, UniProt P13569, DEL508-508)
# experimentalDetails: Membrane potential optical (FRET/VIPR) assay, identification of potentiator compounds
# details: Table 3; assay not given
# Source text: […]
pEC50: −log10 of the molar value.
measureName: pEC50

Here is how some compounds turned out for pEC50.
{"compound": "O=C(Nc1ccc2ccccc2n1)c1c[nH]c2ccccc2c1=O", "targetOfAssay": "ΔF508-CFTR (Homo sapiens, UniProt P13569, DEL508-508)", "pEC50": "4.60 to 5.00"}
{"compound": "CC(C)(C)c1cc(C#N)c(NC(=O)c2c[nH]c3ccccc3c2=O)cc1O", "targetOfAssay": "ΔF508-CFTR (Homo sapiens, UniProt P13569, DEL508-508)", "pEC50": "> 5.00"}
{"compound": "O=C(Nc1ccc2c(c1)C(O)CCC2)c1c[nH]c2ccccc2c1=O (centres unmarked)", "targetOfAssay": "ΔF508-CFTR (Homo sapiens, UniProt P13569, DEL508-508)", "pEC50": "4.60 to 5.00"}
{"compound": "COC(=O)[C@@H]1[C@H]2C[C@H]2CN1c1ccc(NC(=O)c2c[nH]c3ccccc3c2=O)c(C(F)(F)F)c1", "targetOfAssay": "ΔF508-CFTR (Homo sapiens, UniProt P13569, DEL508-508)", "pEC50": "> 5.00"}
{"compound": "CCOc1cccc2c(=O)c(C(=O)Nc3ccc(C(C)C)cc3C(F)(F)F)c[nH]c12", "targetOfAssay": "ΔF508-CFTR (Homo sapiens, UniProt P13569, DEL508-508)", "pEC50": "> 5.00"}
{"compound": "Cc1ccc(-c2ccccc2NC(=O)c2c[nH]c3ccccc3c2=O)cc1C", "targetOfAssay": "ΔF508-CFTR (Homo sapiens, UniProt P13569, DEL508-508)", "pEC50": "> 5.00"}
{"compound": "CC1CCN(c2ccccc2NC(=O)c2c[nH]c3ccccc3c2=O)CC1", "targetOfAssay": "ΔF508-CFTR (Homo sapiens, UniProt P13569, DEL508-508)", "pEC50": "> 5.00"}
{"compound": "N#Cc1ccccc1NC(=O)c1c[nH]c2ccccc2c1=O", "targetOfAssay": "ΔF508-CFTR (Homo sapiens, UniProt P13569, DEL508-508)", "pEC50": "4.60 to 5.00"}

QUERY: Need pEC50, item O=C(Nc1ccccc1C(O)c1ccccc1)c1c[nH]c2ccccc2c1=O (centres unmarked)
RESULT: > 5.00

QUERY: Entry "O=C(Nc1cc2[nH]ccc2cc1F)c1c[nH]c2ccc(F)cc2c1=O" please
RESULT: > 5.00

QUERY: Note, next up: "CC(C)(C)c1ccc(O)cc1NC(=O)c1c[nH]c2ccccc2c1=O"
RESULT: > 5.00

QUERY: "CCC(CC)(CC)c1cc(F)c(NC(=O)c2cnc3ccccc3c2O)cc1O" , same question.
RESULT: > 5.00

QUERY: Next up: "CC(C)c1cc(C(F)(F)F)c(NC(=O)c2c[nH]c3ccccc3c2=O)cc1OCc1ccccc1"
RESULT: > 5.00

QUERY: Now try "CC(C)(C)c1cc(NC(=O)c2c[nH]c3ccccc3c2=O)c(O)c(C(C)(C)C)c1" .
RESULT: > 5.00

QUERY: // query: "CN(C)CCS(=O)(=O)Nc1cc(NC(=O)c2c[nH]c3ccccc3c2=O)cc(C(F)(F)F)c1"
RESULT: 4.60 to 5.00

QUERY: Can you check "O=C(Nc1cccnc1Oc1ccccc1F)c1c[nH]c2ccccc2c1=O" next?
RESULT: > 5.00

QUERY: Now the compound "Cc1cc(N2CCCC2)ccc1NC(=O)c1c[nH]c2ccccc2c1=O"
RESULT: > 5.00
